Measured GI50 values are reported for all entries that follow.
Tested on: RPMI-8226
Experiment: NCI tumour cell line growth inhibition, 48 h
Active and inactive are the calls of the source. Rule as the data show it: active = GI50 up to about 1.1 µM and inactive = higher.

| compound | GI50 |
| --- | --- |
| Cc1nn(-c2ccccc2)c2c1C(c1ccc(Cl)cc1)NC(=S)N2 (stereo not drawn) | 19.1 µM (inactive) |
| O=C1C2c3[nH]c4ccccc4c3C3CCCCCC3C2C(=O)N1c1ccccc1 (stereo not drawn) | > 100 µM (inactive) |
| N=c1oc2ccccc2cc1-c1nc2ccccc2[nH]1 | 26.3 µM (inactive) |

----------
Listed here are compounds together with their documented GI50.
Test system: XF498
Assay: NCI tumour cell line growth inhibition, 48 h
The source made the active and inactive calls. Rule as the data show it: active = GI50 up to about 1.1 µM and inactive = higher.

| compound | GI50 |
| --- | --- |
| CCCCCCCCCCCC[N+]12CC[N+](CCN)(CC1)CC2 | > 100 µM (inactive) |
| CC(C)(C=O)CC(C#N)/C(=N\NC(N)=O)C(=O)Nc1ccccc1C(N)=O (stereo not drawn) | > 100 µM (inactive) |
| COC1=CC(=O)[C@]2(C)[C@H](C1=O)C(C)[C@H]2c1ccc(OC)cc1 (stereo partly drawn) | > 100 µM (inactive) |
| CCCC(O)c1ccc2[nH]c3c(C)cc([N+](=O)[O-])c(C)c3c2c1 (stereo not drawn) | > 100 µM (inactive) |
| O=C(Nc1ccc(F)cc1)C(=O)C(C1OC(=O)c2ccccc21)[N+](=O)[O-] (stereo not drawn) | > 100 µM (inactive) |
| COC1=CC(=O)C2C(C1=O)C(c1ccc(OC)c(OC)c1)[C@H]2C (stereo partly drawn) | 16.2 µM (inactive) |
| Cn1c2ccccc2c(=O)c2c([N+](=O)[O-])ccc(NCCN)c21 | 15.1 µM (inactive) |
| O=C(Oc1ccc2c(-c3ccccc3)c(C(=O)Nc3ccc(Cl)cc3)c(=O)oc2c1)c1ccccc1 | 58.1 µM (inactive) |
| O=C(O)c1cc(=O)c2[nH]c3ccccc3c2s1 | > 100 µM (inactive) |
| O=C1C(Cl)C(c2cccc(O)c2)N1n1cnc2ccccc2c1=O (stereo not drawn) | > 100 µM (inactive) |
| O=c1[nH]c(Br)nc2c(Br)c[nH]c12 | > 100 µM (inactive) |
| Fc1nc(F)nc(-c2c3ccccc3c3n2CCS3)n1 | 23.4 µM (inactive) |
| N[C@H](C(=O)O)[C@@H](Cl)CC(=O)O | > 100 µM (inactive) |
